molecular target: ZFP SBS#1220 (synthetic); assay: EMSA; conditions: tags: MBP fusion
Sequence (chain, as listed by the source): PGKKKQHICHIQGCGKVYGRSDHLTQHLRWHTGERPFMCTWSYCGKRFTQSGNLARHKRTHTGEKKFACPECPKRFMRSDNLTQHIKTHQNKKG
assay_readout: Kd (nM)
Hi! Could you send only the number? It should be in nM, unit omitted.

Q. Report measured Kd; entry is AAGGAAAGG (dsDNA) DNA 1: AAGGAAAGG DNA 2: CCTTTCCTT
A. 0.175
